Cited source for all entries: PubChem BioAssay

Property: RAM network inhibition; scope: individual compounds
assay: RAM signaling pathway blockade in yeast – S. cerevisiae, Pdr1DBD-CYC8 efflux-inhibited sensitized strain, primary screen (AID 1298);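 further: 0% = DMSO untreated cells without growth and 100% = 10 µM 1-NA-PP1 full growth; higher means more yeast growth rescued from 5-FOA killing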; settings: S. cerevisiae cbk1-as DSE1-URA3 strain, 5-FOA growth OD615, 2 d; at 50 µM; active compounds read high

{"compound": "COc1cc(C(=O)Nc2ccc(S(=O)(=O)Nc3onc(C)c3C)cc2)cc(OC)c1OC", "RAM network inhibition / %": 4}
{"compound": "CCCCCn1c(CCCNC(=O)CC)nc2ccccc21", "RAM network inhibition / %": 2.13}
{"compound": "O=C(C1CCC(CNc2c(N3CCOCC3)c(=O)c2=O)CC1)N1CCN(c2ccccc2)CC1 (configuration not stated)", "RAM network inhibition / %": 1.31}
{"compound": "COc1ccc(-n2c(SCC(=O)Nc3ccccc3)nc3c(c2=O)SCC3)cc1", "RAM network inhibition / %": 9.27}
{"compound": "CCCCCSc1nc2c(c(=O)[nH]c(=O)n2C)n1C(C)C", "RAM network inhibition / %": 1.95}
{"compound": "CC(=O)c1ccc(NC(=O)CSc2nc3nc(C)cc(C)n3n2)cc1", "RAM network inhibition / %": 2.78}
{"compound": "CC(=O)CCc1c(C)c2cccc(C)c2[nH]c1=O", "RAM network inhibition / %": 3.81}
{"compound": "COc1cccc2c(=O)n(CC(=O)NC3CCCC3)ccc12", "RAM network inhibition / %": 3.83}
{"compound": "O=C(C1CC1)N1CCc2cc(Br)cc(S(=O)(=O)NCc3ccccn3)c21", "RAM network inhibition / %": 5.17}
{"compound": "COC(=O)C1=C(C)NC(=O)NC1c1cn(-c2ccccc2)nc1-c1cccs1 (configuration not stated)", "RAM network inhibition / %": 5.72}
{"compound": "CCc1cc2c(NCC3CCCO3)ncnc2s1 (configuration not stated)", "RAM network inhibition / %": 4.46}
{"compound": "CCOC(=O)C1CCN(C(=O)COc2cc(C)c(Br)c(C)c2)CC1", "RAM network inhibition / %": 1.59}
{"compound": "CC1(C)CC(=O)C=C(NCCN2CCN(C(=O)Nc3ccc(Cl)cc3)CC2)C1", "RAM network inhibition / %": 4.07}
{"compound": "O=C(CSc1nnc(Cc2cc(=O)[nH]c(=O)[nH]2)n1-c1ccc(F)cc1)N1CCCCC1", "RAM network inhibition / %": 2.55}
{"compound": "C=C(Br)Cn1c(CC(C)C)nc2ccccc21", "RAM network inhibition / %": 4.37}
{"compound": "CCCOc1ccc(C(=O)NCCC(=O)NCCCC(=O)OCC)cc1", "RAM network inhibition / %": 0.47}
{"compound": "COC(=O)c1ccc2c(c1)N(Cc1nc(-c3cccc(C)c3)oc1C)C(=O)C1CCCN21 (configuration not stated)", "RAM network inhibition / %": 5.71}
{"compound": "COc1cccc(C(c2sc3ncnn3c2O)N2CCc3ccccc3C2)c1 (configuration not stated)", "RAM network inhibition / %": 11.3}
{"compound": "c1ccc(Cn2nnc3c(N4CCOCC4)ncnc32)cc1", "RAM network inhibition / %": -0.79}
{"compound": "O=C(COc1ccc(S(=O)(=O)NC2CCCCC2)cc1)Nc1ccc2c(c1)OCCO2", "RAM network inhibition / %": 5.01}
{"compound": "Cn1c(=O)c2c(nc(N3CCN(Cc4ccccc4)CC3)n2CCSc2ncccn2)n(C)c1=O", "RAM network inhibition / %": 2.77}
{"compound": "CCOc1ccc(CC(=O)N2CCN(c3ccc(N4CCOCC4)nn3)CC2)cc1OCC", "RAM network inhibition / %": 6.26}

* * *

experiment: growth suppression of PTEN-deleted HCT116, pilot screen, cell-based, HCT116 clonal line, CellTiter-Glo (AID 824); settings: 60 h, at 10 µM, active compounds read low;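 further: 0% = 20 µM Hyamine control and 100% = vehicle cell control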
Inconclusive results are not listed.

{"compound": "CCOC(=O)N1CCC(NC(=O)c2cc3c(-c4ccc(Cl)cc4)nn(C)c3s2)CC1", "measurementUnits": "%", "viability": 92.1}
{"compound": "COCn1c(-c2cccc(Br)c2)nc2ccccc21", "measurementUnits": "%", "viability": 86.8}
{"compound": "CC(=Nc1ccc(C)c(C)c1)C1=C(O)CSC1=O", "measurementUnits": "%", "viability": 90.3}
{"compound": "Cc1cc(C)c(S(=O)(=O)Nc2ccc(OCC(=O)O)cc2)c(C)c1", "measurementUnits": "%", "viability": 90.5}
{"compound": "CC(C)NC(=O)NC(=O)COc1ncnc2sccc12", "measurementUnits": "%", "viability": 105}
{"compound": "Cn1nc(-c2ccc(Cl)cc2)c2cc(C(=O)NCCCN3CCCC3)sc21", "measurementUnits": "%", "viability": 1.95}
{"compound": "COc1cc(N)ccc1Cc1ccc(N)cc1OC", "measurementUnits": "%", "viability": 90.8}
{"compound": "COc1ccc(Cl)cc1NC(=O)CSc1nnc(Cn2c(=O)sc3ccccc32)n1C", "measurementUnits": "%", "viability": 95.6}
{"compound": "O=C(Cn1nc(Cc2cccnc2)c2ccccc2c1=O)N1CCN(c2ccccn2)CC1", "measurementUnits": "%", "viability": 100}
{"compound": "O=C(CCN1CCc2ccccc2C1)Nc1ccccc1", "measurementUnits": "%", "viability": 89.3}
{"compound": "C=CCSC1=NC(N)=C(C#N)C2(CCCCC2)C1C(N)=O (configuration not stated)", "measurementUnits": "%", "viability": 96.6}
{"compound": "O=C(NCc1ccc(F)cc1)c1cc2n(n1)C(C(F)(F)F)CC(C1CC1)N2 (configuration not stated)", "measurementUnits": "%", "viability": 96}
{"compound": "O=C(CCCn1c(=O)[nH]c2ccccc2c1=O)N1CCN(c2ccccn2)CC1", "measurementUnits": "%", "viability": 96.2}
{"compound": "Cc1cc(Nc2cccc(C)c2C)n2nc(C)nc2n1", "measurementUnits": "%", "viability": 98.3}
{"compound": "CN1CCN(C(=O)c2cn(C)c3ccc(S(=O)(=O)N(C)C4CCCCC4)cc3c2=O)CC1", "measurementUnits": "%", "viability": 101}
{"compound": "Cc1ccc(C2/C(=C(/O)c3ccc(Br)cc3)C(=O)C(=O)N2Cc2ccco2)o1 (configuration not stated)", "measurementUnits": "%", "viability": 65}
{"compound": "CCCCn1c(CN2CCOCC2)nc2c1c(=O)n(C)c(=O)n2C", "measurementUnits": "%", "viability": 89.6}
{"compound": "CCOC(=O)CNC(=O)Cn1cnc2sc(C)c(S(=O)(=O)N3CCC(C)CC3)c2c1=O", "measurementUnits": "%", "viability": 93.6}
{"compound": "Cn1c(C(C#N)C(=O)Cc2cccc3ccccc23)nc2ccccc21 (configuration not stated)", "measurementUnits": "%", "viability": 78.9}
{"compound": "CCOC(=O)c1sc(NC(=O)C2CCCO2)c(C(=O)OCC)c1C (configuration not stated)", "measurementUnits": "%", "viability": 93}
{"compound": "Cn1c(=O)c2cc(S(=O)(=O)NC(C(=O)N3CCCCCC3)c3ccccc3)ccc2n(C)c1=O (configuration not stated)", "measurementUnits": "%", "viability": 89.1}
{"compound": "Cc1ccccc1C(=O)NCCN=C1NS(=O)(=O)c2ccccc21", "measurementUnits": "%", "viability": 103}

* * *

Property: inhibition; scope: individual molecules
assay: inhibitors of the yeast RAM network, pilot screen, dse1pr::URA3 reporter, 5-FOA selection (AID 869);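 further: 0% = DMSO wells with no growth and 100% = 10 µM 1-NA-PP1 with full growth; RAM network block rescues cells from 5-FOA so hits raise OD615 growth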; conditions: S. cerevisiae dse1pr::URA3 5-FOA growth, OD615, 2 d; at 10 µM; active compounds read high; strain carries analog-sensitive mutant Cbk1 kinase

{"molecule": "Cc1c(NC(=O)C2CC=CCC2C(=O)O)c(=O)n(-c2ccccc2)n1C (stereo not drawn)", "measurementUnits": "%", "inhibition": 1.54}
{"molecule": "CCOc1ccc(C2C(C(=O)NC)=C(C)Nc3nc4ccccc4n32)cc1OC (stereo not drawn)", "measurementUnits": "%", "inhibition": 1.18}
{"molecule": "Cc1c(C(=O)NCc2cccnc2)oc2ccccc12", "measurementUnits": "%", "inhibition": 1.27}
{"molecule": "O=C(c1cccc(F)c1)N1CCN=C1SCc1cccnc1", "measurementUnits": "%", "inhibition": 0.32}
{"molecule": "CCOC(=O)N1CCC(NC(=O)c2cc3c(-c4ccc(Cl)cc4)nn(C)c3s2)CC1", "measurementUnits": "%", "inhibition": -0.04}
{"molecule": "COc1ccc(-c2nnc(NC(=O)C(C)C)o2)cc1", "measurementUnits": "%", "inhibition": 1.23}
{"molecule": "Cc1c(C#N)c2ncn(Cc3ccccc3)c(=O)c2n1-c1ccccc1", "measurementUnits": "%", "inhibition": 0.47}
{"molecule": "CC(=O)NC(CCS(C)(=O)=O)C(=O)Nc1cccc(Cl)c1Cl (stereo not drawn)", "measurementUnits": "%", "inhibition": 2.29}
{"molecule": "O=S(=O)(Nc1ccc(O)cc1)c1cccc2cccnc12", "measurementUnits": "%", "inhibition": 2.25}
{"molecule": "CC1CCN(S(=O)(=O)c2ccc3c(c2)oc(=O)n3CC(=O)NCc2ccc3c(c2)OCO3)CC1", "measurementUnits": "%", "inhibition": 3.27}
{"molecule": "Cc1nc2ccccn2c1/C(O)=C1\\C(=O)C(=O)N(CCCN(C)C)C1c1ccc(Cl)cc1 (stereo not drawn)", "measurementUnits": "%", "inhibition": 0.18}
{"molecule": "Cc1ccc(C2CC(c3ccccc3)n3ncnc3N2)cc1 (stereo not drawn)", "measurementUnits": "%", "inhibition": 0.06}
{"molecule": "CC(=O)Nc1ccc(OCC=C(Cl)Cl)cc1", "measurementUnits": "%", "inhibition": 0.805}
{"molecule": "CCOC(=O)CSc1n[nH]c(-c2ccco2)n1", "measurementUnits": "%", "inhibition": 0.85}
{"molecule": "C=CCNc1oc(COc2ccc(C)cc2)nc1C#N", "measurementUnits": "%", "inhibition": 1.18}
{"molecule": "CCN1CCN(c2cc(C)c3cc(NC(=O)Cc4ccc(OC)c(OC)c4)ccc3n2)CC1", "measurementUnits": "%", "inhibition": 3.25}
{"molecule": "Cc1ccc(O)c(C(=O)c2cnn(C(=O)Cc3csc(C)n3)c2)c1", "measurementUnits": "%", "inhibition": -0.5}
{"molecule": "O=C(NCc1ccc2c(c1)OCO2)c1cc2c(s1)CSC2", "measurementUnits": "%", "inhibition": 1.75}
{"molecule": "COc1ccc(OC)c(NC(=O)COC(=O)c2ccc(S(=O)(=O)N3CCOCC3)cc2)c1", "measurementUnits": "%", "inhibition": 2.73}
{"molecule": "CCOC(=O)c1nnc2cc(-c3ccccc3)nn2c1C", "measurementUnits": "%", "inhibition": 1.5}
{"molecule": "C=CCNc1nc2c(c(=O)n(C)c(=O)n2C)n1CC(=C)C", "measurementUnits": "%", "inhibition": -0.15}
{"molecule": "Cc1c(NC(=O)CCCCCN2C(=O)C3C4C=CC(C4)C3C2=O)c(=O)n(-c2ccccc2)n1C (stereo not drawn)", "measurementUnits": "%", "inhibition": 0.685}
{"molecule": "CCOC(=O)N1CCN(c2ccc3nnnn3n2)CC1", "measurementUnits": "%", "inhibition": 0.275}
